assay: Hepatic extraction ratio in mouse liver microsomes; assay type: ADME, microsome; conditions: read-out: ERH
hepatic extraction ratio for assorted compounds

-- ask I would be grateful if you could share the reported hepatic extraction ratio for "c1coc(CNc2ncc(-c3ccc(CN4CCCC4)cc3)c3nncn23)c1" .
-- reply 0.52

-- ask Consider next the compound "N#Cc1cc(-c2ccccc2F)c2nncn2c1NCc1ccco1" in the same way.
-- reply 0.8

----------
test: Total clearance in Beagle dog at 1 mg/kg, iv or 2 mg/kg, po by LC-MS/MS analysis; type: ADME, organism-based, Canis lupus familiaris; settings: in vivo
MEASURED PARAMETER: clearance (mL/min/kg)
Your answer is read as mL/min/kg, so omit the unit and give the number.

-- ask I would be grateful if you could share the reported clearance for "CS(=O)(=O)c1ccc(-c2cnc(NCc3ccco3)n3cnnc23)cc1" .
-- reply 16

----------
assay: Equilibrium solubility of the compound by high-throughput assay; format: physicochemical
MEASURED PARAMETER: solubility thermodynamic (µM)
Your answer is read as µM, so omit the unit and give the number.

-- ask I would be grateful if you could share the reported solubility thermodynamic for "CS(=O)(=O)c1ccc(-c2cnc(NCc3ccco3)n3cnnc23)cc1" .
-- reply 12

----------
test: Solubility of the crystalline form of compound at pH 3; assay type: physicochemical
MEASURED PARAMETER: solubility (µg/mL)
Your answer is read as µg/mL, so omit the unit and give the number.

-- ask I would be grateful if you could share the reported solubility for "CS(=O)(=O)c1ccc(-c2cnc(NCc3ccco3)n3cnnc23)cc1" .
-- reply 26

----------
experiment: Solubility of the crystalline form of compound in simulated gastric fluid; type: physicochemical
MEASURED PARAMETER: solubility (µg/mL)
Your answer is read as µg/mL, so omit the unit and give the number.

-- ask I would be grateful if you could share the reported solubility for "CS(=O)(=O)c1ccc(-c2cnc(NCc3ccco3)n3cnnc23)cc1" .
-- reply 55

----------
experiment: Permeability across apical to basolateral side of human Caco2 cells; format: ADME, cell-based; conditions: Caco-2, read-out: permeability
MEASURED PARAMETER: Papp A→B

-- ask I would be grateful if you could share the reported Papp A→B for "CS(=O)(=O)c1ccc(-c2cnc(NCc3ccco3)n3cnnc23)cc1" .
-- reply 3 ×10⁻⁶ cm/s

----------
experiment: in vivo; conditions: CD-1, mouse, plasma, iv, 1 mg/kg
clearance for assorted compounds
Your answer is read as mL/min/kg, so omit the unit and give the number.

CS(=O)(=O)c1ccc(-c2cnc(NCc3ccco3)n3cnnc23)cc1: 8

Could you now look at the following compound, please?
-- ask I would be grateful if you could share the reported clearance for "CCN(c1cc(-c2ccc(CN3CCOCC3)cc2)cc(C(=O)NCc2c(C)cc(C)[nH]c2=O)c1C)C1CCOCC1" .
-- reply 22
